target: Egr-1 (Zif268) zinc-finger protein (UniProt P18146 335-423); experiment: fluorescence anisotropy
quantity.name: pKd
On this scale, pKd is minus log10 of a concentration expressed in M (mol/L).

Sure, the documented pKd for 12-bp competitor duplex (dsDNA) DNA 1: TATGTAGGCGGT DNA 2: ACCGCCTACATA is 7.54
